Tested on: MDA-MB-231
Test: Antiproliferative activity against human MDA-MB-231 cells
Format: functional, cell-based
measured-quantity: IC50 (nM)
Lab book: enter the figure in nM, no units written.

Consider the compound shown here: COc1c(OCCOCCOCCCCCc2cn(CCCCCNc3cccc4c3C(=O)N(C3CCC(=O)NC3=O)C4=O)nn2)ccc2c1N=C(NC(=O)c1cnc(N)nc1)N1CCN=C21 (stereo unspecified) What is its recorded IC50? 86.8

---

Assay: Stability of compound in PBS at pH 7.4 assessed as parent compound remaining measured after 48 hrs by HPLC analysis
Assay type: physicochemical
Details: read-out: Stability
measured-quantity: remaining at 48 h

Consider the compound shown here: COc1ncc(-c2ccc3ncnc(N[C@H]4CCN(C(=O)C5CCN(CCCCCCCCCC(=O)N[C@H](C(=O)N6C[C@H](O)C[C@H]6C(=O)N[C@@H](C)c6ccc(-c7scnc7C)cc6)C(C)(C)C)CC5)C4)c3n2)cc1C(=O)Oc1ccccc1 What is its recorded remaining at 48 h? > 80%
